Test system: MARIMO;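 note: after 48 h exposure read by CellTiter-Glo luminescence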
Experiment: cell viability relative to vehicle control; higher = less cytotoxic
Conditions: 10 µM; SRSF2 genotype: SRSF2 wt/wt
measured_attribute: cell viability (%)
Numbers only, in %.

- compound: "O=S(=O)(O)CCS"
  unit_of_measure: "%"
  cell viability: 110
- compound: "COc1ccc(C(=O)CC2(O)C(=O)Nc3c(Cl)ccc(Cl)c32)cc1 (stereo not drawn)"
  unit_of_measure: "%"
  cell viability: 8.57

Each of the following entries comes with a recorded value; kindly state cell viability for each.
1. CC(Oc1cc(-c2cnn(C3CCNCC3)c2)cnc1N)c1c(Cl)ccc(F)c1Cl [(S)-crizotinib]
2. COc1cc(Nc2ncc(F)c(Nc3ccc4c(n3)N(COP(=O)(O)O)C(=O)C(C)(C)O4)n2)cc(OC)c1OC [R788 (Fostamatinib)]
3. Cn1cnc2c(F)c(Nc3ccc(Br)cc3F)c(C(=O)NOCCO)cc21
4. CNC(=O)c1cccc(-c2ccc3c(N4CCOC[C@@H]4C)nc(N4CCOC[C@@H]4C)nc3n2)c1
5. CC(=O)OCC1=C(C(=O)O)N2C(=O)[C@@H](NC(=O)Cc3cccs3)[C@H]2SC1

[92, 57, 38.6, 48.5, 100]

Given the compound `COc1cc2ncnc(Oc3ccc(CC(=O)Nc4cnn(C(C)C)c4)cc3)c2cc1OC` , what is its reported cell viability?
107
